Below, each entry is listed with its recorded Number of fold shift in IC50 versus wild type IIIB, Q148R.
Tested on: virus containing Q148R mutation in the integrase gene
Details: k = IC50(mutant)/IC50(wild type)
In your answer, state the number alone without any accompanying words.

## Task Given CC[C@@H]1COC[C@H](N(C)C(=O)C(=O)N(C)C)c2nc(C(=O)NCc3ccc(F)cc3)c(O)c(=O)n21 [Compound 5C] , state its recorded Number of fold shift in IC50 versus wild type IIIB, Q148R.
## Result 7

## Task Similarly, CO[C@]1(C)CC[C@@H](N(C)C(=O)C(=O)N(C)C)c2nc(C(=O)NCc3ccc(F)c(C)c3)c(O)c(=O)n2C1 [Compound 2A] ?
## Result 1

## Task Similarly, Cc1cc(CNC(=O)c2nc3n(c(=O)c2O)CC(C)(C)CC[C@H]3N(C)C(=O)C(=O)N(C)C)ccc1F [Compound 1A] ?
## Result 2

## Task Similarly, Cc1cc(CNC(=O)c2nc3n(c(=O)c2O)[C@@H](C)COC[C@@H]3N(C)C(=O)C(=O)N(C)C)ccc1F [Compound 4B] ?
## Result 3

## Task Similarly, CN(C)C(=O)C(=O)N(C)C1CCCCn2c1nc(C(=O)NCc1ccc(F)cc1)c(O)c2=O (single isomer, unassigned; (-)) [Compound Y, reference compound] ?
## Result 26

## Task Similarly, Cc1ccc(CNC(=O)c2nc3n(c(=O)c2O)C(C)CCCC3N(C)C(=O)C(=O)N(C)C)cc1F (single isomer, unassigned) [Compound 3B] ?
## Result 1

## Task Similarly, Cc1nnc(C(=O)NC(C)(C)c2nc(C(=O)NCc3ccc(F)cc3)c(O)c(=O)n2C)o1 [Compound X, raltegravir, reference compound] ?
## Result 22

## Task Similarly, Cc1cc(CNC(=O)c2nc3n(c(=O)c2O)[C@H](C)COC[C@H]3N(C)C(=O)C(=O)N(C)C)ccc1F [Compound 4D] ?
## Result 9

## Task Similarly, CCN(C(=O)C(=O)N(C)C)[C@@H]1CC[C@H](OC)Cn2c1nc(C(=O)NCc1ccc(F)cc1)c(O)c2=O [Compound 6A] ?
## Result 1

## Task Similarly, CC[C@H]1COC[C@H](N(C)C(=O)C(=O)N(C)C)c2nc(C(=O)NCc3ccc(F)cc3)c(O)c(=O)n21 [Compound 5B] ?
## Result 1

## Task Similarly, COC1(C)CCC(N(C)C(=O)C(=O)N(C)C)c2nc(C(=O)NCc3ccc(F)c(C)c3)c(O)c(=O)n2C1 (single isomer, unassigned) [Compound 2D] ?
## Result 1

## Task Similarly, Cc1cc(CNC(=O)c2nc3n(c(=O)c2O)[C@@H](C)COC[C@H]3N(C)C(=O)C(=O)N(C)C)ccc1F [Compound 4A] ?
## Result 2

## Task Similarly, CC[C@H]1COC[C@@H](N(C)C(=O)C(=O)N(C)C)c2nc(C(=O)NCc3ccc(F)cc3)c(O)c(=O)n21 [Compound 5A] ?
## Result 1

## Task Similarly, Cc1cc(CNC(=O)c2nc3n(c(=O)c2O)[C@H](C)COC[C@@H]3N(C)C(=O)C(=O)N(C)C)ccc1F [Compound 4C] ?
## Result 3

## Task Similarly, CO[C@@]1(C)CC[C@H](N(C)C(=O)C(=O)N(C)C)c2nc(C(=O)NCc3ccc(F)c(C)c3)c(O)c(=O)n2C1 [Compound 2B] ?
## Result 24

## Task Similarly, Cc1cc(CNC(=O)c2nc3n(c(=O)c2O)CC(C)(C)CC[C@@H]3N(C)C(=O)C(=O)N(C)C)ccc1F [Compound 1B] ?
## Result 12

====

Test system: virus containing N155H mutation in the integrase gene
Settings: k = IC50(mutant)/IC50(wild type)
observed-property: Number of fold shift in IC50 versus wild type IIIB, N155H
In your answer, state the number alone without any accompanying words.

INSERT INTO measurements (molecule, quantitative_readout) VALUES
  ('Cc1cc(CNC(=O)c2nc3n(c(=O)c2O)[C@H](C)COC[C@@H]3N(C)C(=O)C(=O)N(C)C)ccc1F [Compound 4C]', 3);

## Task Given Cc1ccc(CNC(=O)c2nc3n(c(=O)c2O)C(C)CCCC3N(C)C(=O)C(=O)N(C)C)cc1F (single isomer, unassigned) [Compound 3B] , state its recorded Number of fold shift in IC50 versus wild type IIIB, N155H.
## Result 1

## Task Similarly, CN(C)C(=O)C(=O)N(C)C1COCCn2c1nc(C(=O)NCc1ccc(F)cc1)c(O)c2=O (single isomer, unassigned; (+)) [Compound V, reference compound] ?
## Result 10

====

Below, each entry is listed with its recorded IC50.
Target: recombinant integrase (HIV-1 integrase) (Human immunodeficiency virus type 1 group M subtype B, UniProt P04585)
Construct: Assays for the strand transfer activity of integrase were conducted in accordance with WO 02/30930 for recombinant integrase
Assay: HIV-1 integrase assay: strand transfer catalyzed by recombinant integrase
Type: biochemical
Details: strand transfer activity, read-out: IC50
Write the answer as a number in nM, unit excluded.

See these solved cases before continuing.
INSERT INTO measurements (compound, unit_of_measure, quantitative_readout) VALUES
  ('CC[C@@H]1COC[C@@H](N(C)C(=O)C(=O)N(C)C)c2nc(C(=O)NCc3ccc(F)cc3)c(O)c(=O)n21 [Compound 5D]', 'nM', 42),
  ('CC[C@H]1COC[C@@H](N(C)C(=O)C(=O)N(C)C)c2nc(C(=O)NCc3ccc(F)cc3)c(O)c(=O)n21 [Compound 5A]', 'nM', 46),
  ('Cc1cc(CNC(=O)c2nc3n(c(=O)c2O)[C@H](C)COC[C@H]3N(C)C(=O)C(=O)N(C)C)ccc1F [Compound 4D]', 'nM', 36);

## Task Given Cc1cc(CNC(=O)c2nc3n(c(=O)c2O)CC(C)(C)CC[C@@H]3N(C)C(=O)C(=O)N(C)C)ccc1F [Compound 1B] , state its recorded IC50.
## Result 38

====

Below, each entry is listed with its recorded Number of fold shift in IC50 versus wild type IIIB, G140S/Q148H.
Tested on: virus containing G140S/Q148H mutation in the integrase gene
Details: k = IC50(mutant)/IC50(wild type)
In your answer, state the number alone without any accompanying words.

See these solved cases before continuing.
INSERT INTO assay_data (compound, quantitative_readout) VALUES
  ('CN(C)C(=O)C(=O)N(C)C1CCCCn2c1nc(C(=O)NCc1ccc(F)cc1)c(O)c2=O (single isomer, unassigned; (-)) [Compound Y, reference compound]', 406),
  ('CC[C@@H]1COC[C@H](N(C)C(=O)C(=O)N(C)C)c2nc(C(=O)NCc3ccc(F)cc3)c(O)c(=O)n21 [Compound 5C]', 116);

## Task Given CC[C@@H]1COC[C@@H](N(C)C(=O)C(=O)N(C)C)c2nc(C(=O)NCc3ccc(F)cc3)c(O)c(=O)n21 [Compound 5D] , state its recorded Number of fold shift in IC50 versus wild type IIIB, G140S/Q148H.
## Result 18

====

Tested on: virus containing E92Q mutation in the integrase gene
Conditions: k = IC50(mutant)/IC50(wild type)
Description: An assay for measuring the inhibition of acute HIV infection with HeLa P4-2 cells in a single cycle infectivity assay was conducted using methods described in Joyce et al., J. Biol. Chem. 2002, 277: 45811, Hazuda et al., Science 2000, 287: 646, and Kimpton et al, J. Virol. 1992, 66: 2232. […]
observed-property: Number of fold shift in IC50 versus wild type IIIB, E92Q
In your answer, state the number alone without any accompanying words.

## Task Lab request: please report Number of fold shift in IC50 versus wild type IIIB, E92Q under test system virus containing E92Q mutation in the integrase gene for `CC[C@H]1COC[C@H](N(C)C(=O)C(=O)N(C)C)c2nc(C(=O)NCc3ccc(F)cc3)c(O)c(=O)n21`
## Result 1

## Task Similarly, Cc1nnc(C(=O)NC(C)(C)c2nc(C(=O)NCc3ccc(F)cc3)c(O)c(=O)n2C)o1 [Compound X, raltegravir, reference compound] ?
## Result 3

## Task Similarly, CC1(C)OCCn2c1nc(C(=O)NCc1ccc(F)cc1)c(O)c2=O [Compound Z, reference compound] ?
## Result 26

## Task Similarly, `Cc1cc(CNC(=O)c2nc3n(c(=O)c2O)[C@@H](C)COC[C@H]3N(C)C(=O)C(=O)N(C)C)ccc1F` ?
## Result 1

## Task Similarly, `CC[C@H]1COC[C@@H](N(C)C(=O)C(=O)N(C)C)c2nc(C(=O)NCc3ccc(F)cc3)c(O)c(=O)n21` ?
## Result 2

## Task Similarly, `CCN(C(=O)C(=O)N(C)C)[C@@H]1CC[C@H](OC)Cn2c1nc(C(=O)NCc1ccc(F)cc1)c(O)c2=O` ?
## Result 3

## Task Similarly, CN(C)C(=O)C(=O)N(C)C1CCCCn2c1nc(C(=O)NCc1ccc(F)cc1)c(O)c2=O (single isomer, unassigned; (-)) [Compound Y, reference compound] ?
## Result 4

## Task Similarly, `CO[C@]1(C)CC[C@@H](N(C)C(=O)C(=O)N(C)C)c2nc(C(=O)NCc3ccc(F)c(C)c3)c(O)c(=O)n2C1` ?
## Result 1
